Catalogue of compounds with associated melting point

{"columns": ["compound", "melting point"],
 "data": [
  ["CC(C)C(=O)Nc1ccc(OCc2ccccc2)c(Br)c1N(C)C", "197 to 198 °C"],
  ["FC(F)(F)c1ccc(-c2nc(Cl)cc(-c3ccccc3)n2)cc1", "82 to 84 °C"],
  ["CCOC(=O)CSC1=CC(=NS(=O)(=O)c2cccs2)c2ccccc2C1=O", "110 to 112 °C"],
  ["Cc1nc2c3c(ccn2c1C)C(=O)CC(c1ccccc1)N3 (stereo not given)", "138 to 140 °C"],
  ["CN(c1cccc2cc(C3=NCC(C)(C#N)S3)[nH]c12)S(=O)(=O)c1cccs1 (stereo not given)", "178 to 179 °C"],
  ["N#Cc1cnc2sc(-c3ccccc3)cc2c1Nc1ccc2[nH]ccc2c1", "> 245 °C"],
  ["COc1cc(Nc2c(C#N)cnc3ccsc23)c(Cl)cc1Cl", "208 to 210 °C"],
  ["N#Cc1cc([N+](=O)[O-])ccc1N1CCN(Cc2ccccc2)CC1", "124 °C"],
  ["CCCCCS(=O)(=O)NC(=O)/C=C/c1ccc(OCCOC)cc1OCc1ccc(Cl)cc1Cl", "138 °C"],
  ["COc1cccc(C(O)CN(C)Cc2sc3c(=O)c(C(=O)NCc4ccc(Cl)cc4)cn(C)c3c2COCC[Si](C)(C)C)c1 (stereo not given)", "150 to 152 °C"],
  ["CC1(C)SC2C(N3C(=O)C(C4=CCC=CC4)NC3(C)C)C(=O)N2C1C(=O)O (stereo not given)", "186 °C"],
  ["COc1ccc(-c2c[nH]c(-c3nc(-c4ccco4)c(C(=O)C4CCOCC4)s3)n2)cc1", "178 to 180 °C"],
  ["COc1cc(C=CC(=O)c2cccc(N(C)C)c2)cc(OC)c1", "81.8 to 82.6 °C"],
  ["Cc1ncn(-c2ccc(C=O)cc2)n1", "125 to 128 °C"],
  ["CCCc1cccc(=O)[nH]1", "89 to 90 °C"],
  ["CS(=O)(=O)c1ccc2c(c1)[C@@H](Oc1ccc(C#N)cc1Cl)[C@H](N1CCC[C@@H](N)C1)C2", "162 °C"],
  ["CCCCC1(CCCC)CCc2c(O)cccc2C1O (stereo not given)", "82 to 83 °C"],
  ["CC(C)(Cc1ccc(O)c2ncccc12)[N+](=O)[O-]", "133 to 134 °C"],
  ["CN(C)CC1CN(Cc2ccccc2)c2ccccc2N1C=O (stereo not given)", "82 to 84 °C"],
  ["CC(O)C1(c2cccc(Cl)c2)CCCN(C)CC1 (stereo not given)", "123 to 124 °C"],
  ["O=C(/C=C/c1ccc(Br)cc1)Nc1ccccc1C(=O)O", "215 to 216 °C"],
  ["CC(=O)c1ccc(C(=O)NC/C=C/c2ccccc2)cc1", "120 °C"],
  ["NC(=S)c1ccc(O)cc1O", "164 to 166 °C"],
  ["CCC(=O)Oc1ccc(/C(=C(/CC)c2ccccc2)c2ccc(/C=C/C(=O)O)cc2)cc1", "158 to 160 °C"],
  ["O=C(NCc1ccccn1)C1=C(C(=O)Nc2cc(OC3CCCC3)c(Cl)cc2F)CCCC1", "144 to 148 °C"],
  ["O=c1c(-c2ccccc2)c(CNc2ncnc3[nH]cnc23)oc2ccc(F)cc12", "183 to 186 °C"],
  ["CN1C2CCC1CN(c1ccc(-c3cccs3)nn1)C2", "156 °C"],
  ["CCCCNS(=O)(=O)c1ccc(N2CCC(NC[C@H](O)c3ccc(O)c(NS(C)(=O)=O)c3)CC2)cc1", "71 to 75 °C"],
  ["CCCCC1(N(C)C)CCC(c2[nH]c3ccc(F)cc3c2C)(c2[nH]c3ccccc3c2C(COC(N)=O)c2ccccc2)CC1 (stereo not given)", "101 to 105 °C"],
  ["O=C(c1ccc(Cl)c(Cl)c1)c1ccc(O)c(Cl)c1Cl", "179 to 180 °C"],
  ["Cc1nc(-c2ccc(NC(=O)OCc3ccccc3)cc2)c[nH]c1=O", "238 to 240 °C"],
  ["CN1C(=O)CCc2cccc(N3CCN(CCCCOc4ccc5c(n4)NC(=O)CCC5)CC3)c21", "184 to 185 °C"],
  ["CCOCc1nc(N)c(N)c(=O)[nH]1", "173 to 175 °C"],
  ["NS(=O)(=O)c1ccc(CCO)s1", "70 to 72 °C"],
  ["Cc1ccc(Cc2nc3cc(Cl)c(S(N)(=O)=O)cc3[nH]2)cc1", "214 to 217 °C"],
  ["C#Cc1cn(C2CC(F)C(COC(c3ccccc3)(c3ccccc3)c3ccccc3)O2)c(=O)[nH]c1=O (stereo not given)", "54 °C"],
  ["CCCCC[C@@H](C)C[C@H](CN)CC(=O)O", "174 to 175 °C"],
  ["Cc1noc(NS(=O)(=O)c2ccccc2-c2ccc(CC(C)C)cc2CO)c1C", "60 to 67 °C"],
  ["CC(C(N)=O)n1c(-c2ccc(Cl)cc2)nc2cccnc21 (stereo not given)", "202 to 204 °C"],
  ["CCCOc1ccc(S(=O)(=O)N2CCC(C(=O)OCC)CC2)cc1-c1nc2cc(Cl)c([N+](=O)[O-])cc2c(=O)[nH]1", "203 to 204 °C"]
]}
